experiment-description: Urinary excretion study in rats after oral NS, SF or CNS (LC–MS/MS)
Format: in vivo
test-context: rat urine, oral CNS 110 mg/kg, 36 h
Each item that follows carries a reported Excretion amount.
Give the number; µg is assumed, so skip it.

**Query** Specify Excretion amount for CC(C)=CCC[C@](C)(O[C@@H]1O[C@H](CO)[C@@H](O)[C@H](O)[C@H]1O)[C@H]1CC[C@]2(C)[C@@H]1[C@H](O)C[C@@H]1[C@@]3(C)CC[C@H](O)C(C)(C)[C@@H]3[C@@H](O[C@@H]3O[C@H](CO)[C@@H](O)[C@H](O)[C@H]3O)C[C@]12C [ginsenoside Rg1] and stop.
**Result** 0.336

###

experiment-description: Fecal excretion study in rats after oral NS, SF or CNS (LC–MS/MS)
Format: in vivo
test-context: rat feces, oral CNS 110 mg/kg, 96 h
observed-property: Excretion amount (µg)
Quick note: give the figure in µg, leave out the unit.

As a guide, the following entries are already answered.
>  <compound>
CC(C)=CCC[C@](C)(O[C@@H]1O[C@H](CO)[C@@H](O)[C@H](O)[C@H]1O)[C@H]1CC[C@]2(C)[C@@H]1[C@H](O)C[C@@H]1[C@@]3(C)CC[C@H](O)C(C)(C)[C@@H]3[C@@H](O[C@@H]3O[C@H](CO)[C@@H](O)[C@H](O)[C@H]3O[C@@H]3O[C@@H](C)[C@H](O)[C@@H](O)[C@H]3O)C[C@]12C [ginsenoside Re]

>  <unit>
µg

>  <Excretion amount>
0.717

$$$$
>  <compound>
CC(C)=CCC[C@](C)(O[C@@H]1O[C@H](CO[C@@H]2O[C@H](CO)[C@@H](O)[C@H](O)[C@H]2O)[C@@H](O)[C@H](O)[C@H]1O)[C@H]1CC[C@]2(C)[C@@H]1[C@H](O)C[C@@H]1[C@@]3(C)CC[C@H](O[C@@H]4O[C@H](CO)[C@@H](O)[C@H](O)[C@H]4O[C@@H]4O[C@H](CO)[C@@H](O)[C@H](O)[C@H]4O)C(C)(C)[C@@H]3CC[C@]12C [ginsenoside Rb1]

>  <unit>
µg

>  <Excretion amount>
0.350

$$$$
>  <compound>
CC(C)=CCC[C@](C)(O[C@@H]1O[C@H](CO)[C@@H](O)[C@H](O)[C@H]1O)[C@H]1CC[C@]2(C)[C@@H]1[C@H](O)C[C@@H]1[C@@]3(C)CC[C@H](O)C(C)(C)[C@@H]3[C@@H](O[C@@H]3O[C@H](CO)[C@@H](O)[C@H](O)[C@H]3O)C[C@]12C [ginsenoside Rg1]

>  <unit>
µg

>  <Excretion amount>
0.396

$$$$

**Query** Return value of Excretion amount for input CC(C)=CCC[C@](C)(O[C@@H]1O[C@H](CO)[C@@H](O)[C@H](O)[C@H]1O)[C@H]1CC[C@]2(C)[C@@H]1[C@H](O)C[C@@H]1[C@@]3(C)CC[C@H](O[C@@H]4O[C@H](CO)[C@@H](O)[C@H](O)[C@H]4O[C@@H]4O[C@H](CO)[C@@H](O)[C@H](O)[C@H]4O)C(C)(C)[C@@H]3CC[C@]12C [ginsenoside Rd] , no commentary.
**Result** 0.570

###

experiment-description: Urinary excretion study in rats after oral NS, SF or CNS (LC–MS/MS)
Type: in vivo
test-context: male, Sprague Dawley, rat, urine, oral, 60 mg/kg, oral NS 60 mg/kg, 48 h
observed-property: concentration at 48 h
# number then unit; no other words

**Query** Fill in reported concentration at 48 h for this entry: CC(C)=CCC[C@](C)(O[C@@H]1O[C@H](CO)[C@@H](O)[C@H](O)[C@H]1O)[C@H]1CC[C@]2(C)[C@@H]1[C@H](O)C[C@@H]1[C@@]3(C)CC[C@H](O)C(C)(C)[C@@H]3[C@@H](O[C@@H]3O[C@H](CO)[C@@H](O)[C@H](O)[C@H]3O[C@@H]3O[C@@H](C)[C@H](O)[C@@H](O)[C@H]3O)C[C@]12C [ginsenoside Re]
**Result** 13 ng/mL

###

experiment-description: Urinary excretion study in rats after oral NS, SF or CNS (LC–MS/MS)
Assay type: in vivo
test-context: rat urine, oral NS 60 mg/kg, 4 h
observed-property: Accumulative excretion percentage (%)
Field format: number, assumed %, no unit text.

>  <molecule>
CC(C)=CCC[C@](C)(O[C@@H]1O[C@H](CO)[C@@H](O)[C@H](O)[C@H]1O)[C@H]1CC[C@]2(C)[C@@H]1[C@H](O)C[C@@H]1[C@@]3(C)CC[C@H](O[C@@H]4O[C@H](CO)[C@@H](O)[C@H](O)[C@H]4O[C@@H]4O[C@H](CO)[C@@H](O)[C@H](O)[C@H]4O)C(C)(C)[C@@H]3CC[C@]12C [ginsenoside Rd]

>  <numeric-result>
0.003

$$$$
>  <molecule>
CC(C)=CCC[C@](C)(O[C@@H]1O[C@H](CO)[C@@H](O)[C@H](O)[C@H]1O)[C@H]1CC[C@]2(C)[C@@H]1[C@H](O)C[C@@H]1[C@@]3(C)CC[C@H](O)C(C)(C)[C@@H]3[C@@H](O[C@@H]3O[C@H](CO)[C@@H](O)[C@H](O)[C@H]3O)C[C@]12C [ginsenoside Rg1]

>  <numeric-result>
0.193

$$$$
>  <molecule>
CC(C)=CCC[C@](C)(O[C@@H]1O[C@H](CO[C@@H]2O[C@H](CO)[C@@H](O)[C@H](O)[C@H]2O)[C@@H](O)[C@H](O)[C@H]1O)[C@H]1CC[C@]2(C)[C@@H]1[C@H](O)C[C@@H]1[C@@]3(C)CC[C@H](O[C@@H]4O[C@H](CO)[C@@H](O)[C@H](O)[C@H]4O[C@@H]4O[C@H](CO)[C@@H](O)[C@H](O)[C@H]4O)C(C)(C)[C@@H]3CC[C@]12C [ginsenoside Rb1]

>  <numeric-result>
0.013

$$$$

Alright, here's another molecule for you.
**Query** Supply Accumulative excretion percentage value. Item: CC(C)=CCC[C@](C)(O[C@@H]1O[C@H](CO)[C@@H](O)[C@H](O)[C@H]1O)[C@H]1CC[C@]2(C)[C@@H]1[C@H](O)C[C@@H]1[C@@]3(C)CC[C@H](O)C(C)(C)[C@@H]3[C@@H](O[C@@H]3O[C@H](CO)[C@@H](O)[C@H](O)[C@H]3O[C@@H]3O[C@@H](C)[C@H](O)[C@@H](O)[C@H]3O)C[C@]12C [ginsenoside Re]
**Result** 0.072

###

experiment-description: Urinary excretion study in rats after oral NS, SF or CNS (LC–MS/MS)
Type: in vivo
test-context: rat urine, oral CNS 110 mg/kg, 120 h
Attribute: Accumulative excretion percentage
Provide the reading as a plain figure in %.

Examples with their reported Accumulative excretion percentage follow.
>  <compound>
CC(C)=CCC[C@](C)(O[C@@H]1O[C@H](CO)[C@@H](O)[C@H](O)[C@H]1O)[C@H]1CC[C@]2(C)[C@@H]1[C@H](O)C[C@@H]1[C@@]3(C)CC[C@H](O)C(C)(C)[C@@H]3[C@@H](O[C@@H]3O[C@H](CO)[C@@H](O)[C@H](O)[C@H]3O)C[C@]12C [ginsenoside Rg1]

>  <unit>
%

>  <Accumulative excretion percentage>
0.292

$$$$
>  <compound>
CC(C)=CCC[C@](C)(O[C@@H]1O[C@H](CO[C@@H]2O[C@H](CO)[C@@H](O)[C@H](O)[C@H]2O)[C@@H](O)[C@H](O)[C@H]1O)[C@H]1CC[C@]2(C)[C@@H]1[C@H](O)C[C@@H]1[C@@]3(C)CC[C@H](O[C@@H]4O[C@H](CO)[C@@H](O)[C@H](O)[C@H]4O[C@@H]4O[C@H](CO)[C@@H](O)[C@H](O)[C@H]4O)C(C)(C)[C@@H]3CC[C@]12C [ginsenoside Rb1]

>  <unit>
%

>  <Accumulative excretion percentage>
0.038

$$$$
>  <compound>
CC(C)=CCC[C@](C)(O[C@@H]1O[C@H](CO)[C@@H](O)[C@H](O)[C@H]1O)[C@H]1CC[C@]2(C)[C@@H]1[C@H](O)C[C@@H]1[C@@]3(C)CC[C@H](O)C(C)(C)[C@@H]3[C@@H](O[C@@H]3O[C@H](CO)[C@@H](O)[C@H](O)[C@H]3O[C@@H]3O[C@@H](C)[C@H](O)[C@@H](O)[C@H]3O)C[C@]12C [ginsenoside Re]

>  <unit>
%

>  <Accumulative excretion percentage>
0.100

$$$$

Shift focus to the following entry.
**Query** Please report Accumulative excretion percentage for the following compound: CC(C)=CCC[C@](C)(O[C@@H]1O[C@H](CO)[C@@H](O)[C@H](O)[C@H]1O)[C@H]1CC[C@]2(C)[C@@H]1[C@H](O)C[C@@H]1[C@@]3(C)CC[C@H](O[C@@H]4O[C@H](CO)[C@@H](O)[C@H](O)[C@H]4O[C@@H]4O[C@H](CO)[C@@H](O)[C@H](O)[C@H]4O)C(C)(C)[C@@H]3CC[C@]12C [ginsenoside Rd]
**Result** 0.019

# credit: paper PMC6321168
